Reference source for all entries: patent US20260250381A1

# Measurement target: T1, human TREM2 (human) (UniProt Q9NZC2)
# T1 sequence (looked up): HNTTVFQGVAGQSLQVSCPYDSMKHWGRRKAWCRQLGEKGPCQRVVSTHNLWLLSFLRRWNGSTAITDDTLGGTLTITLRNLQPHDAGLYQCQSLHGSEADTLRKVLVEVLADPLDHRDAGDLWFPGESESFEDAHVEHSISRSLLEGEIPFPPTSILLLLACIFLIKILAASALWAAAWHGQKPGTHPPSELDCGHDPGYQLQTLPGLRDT
# Protocol: 2nd screen, 2 nM Ab
Parameter: Binding Signal (fold over 6E7 parental antibody) (fold)
Report only the number, with the unit fold understood.

6E7 variant V25 (antibody, V domains shown) VH: EVQLVQSGAEVKKPGESLKISCKGSGYSFGSYWIAWVRQMPGKGLEWMGLIYPGDSDTRYSPSFQGQVTISADKSISTAYLQWSSLKASDTAMYFCARSRTFYYDSSDYFDYWGQGTLVTVSS VL: DIQMTQSPSSVSASVGDRVTITCRASQGISSWLAWYQQKPGKAPKLLIYAASSLANGVPSRFSGSGSGTDFTLTISSLQPEDFATYFCQQADSMPRTFGQGTKLEIK : 3.15

Next binder, Binding Signal (fold over 6E7 parental antibody) to be filled in.
q: Data request, read-out Binding Signal (fold over 6E7 parental antibody), for 6E7 variant V85 (antibody, V domains shown) VH: EVQLVQSGAEVKKPGESLKISCKGSGYSFRSYWIAWVRQMPGKGLEWMGTIYPGDSDTRYSPSFQGQVTISADKSISTAYLQWSSLKASDTAMYFCARSRTFYYDSSDYFDYWGQGTLVTVSS VL: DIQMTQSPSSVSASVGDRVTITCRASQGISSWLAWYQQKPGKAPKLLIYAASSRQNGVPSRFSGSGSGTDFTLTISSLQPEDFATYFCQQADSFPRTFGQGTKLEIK
a: 5.41
